target.entity: GST-Ap-NF-kB RHD (Exaiptasia pallida (Aiptasia), UniProt A0A913YAJ5 2-422)
Sequence: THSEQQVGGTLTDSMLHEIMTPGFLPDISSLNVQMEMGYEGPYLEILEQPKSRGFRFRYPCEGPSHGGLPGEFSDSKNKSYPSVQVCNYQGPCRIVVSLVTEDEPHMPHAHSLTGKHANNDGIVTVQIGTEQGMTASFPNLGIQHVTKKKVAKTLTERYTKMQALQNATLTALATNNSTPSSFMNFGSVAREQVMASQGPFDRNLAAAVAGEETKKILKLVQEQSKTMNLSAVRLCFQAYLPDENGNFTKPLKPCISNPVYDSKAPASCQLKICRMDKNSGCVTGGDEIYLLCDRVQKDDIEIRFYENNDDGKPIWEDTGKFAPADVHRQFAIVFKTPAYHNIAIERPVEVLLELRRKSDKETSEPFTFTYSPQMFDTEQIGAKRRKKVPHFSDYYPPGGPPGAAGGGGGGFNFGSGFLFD
measurement.description: protein-binding microarray (PBM); PBM: ~300 nM protein, 6 mM HEPES pH 7.8, 80 mM KCl, 0.5 mM EDTA, 0.5 mM EGTA, 6% glycerol, 35 ng/ul poly-dIdC, 1% milk, 1 h, room temperature; high values mean tight binding
test.conditions: dsDNA, one strand shown
Reported binding signal values for a set of sequences

| sequence | binding signal, z-score |
| --- | --- |
| CCGATTAACATCAGGGGATGGGATGATGTTAATCGGGTCTTGATTCGCTTGACGCTGCTG | 3.51 |
| CCGATTAACATCAACGGTGGGAATGATGTTAATCGGGTCTTGATTCGCTTGACGCTGCTG | 1.12 |
| CCGATTAACATCAGCACTCCCCCTGATGTTAATCGGGTCTTGATTCGCTTGACGCTGCTG | 5.42 |
| CCGATTAACATCAGATGGGAAAATGATGTTAATCGGGTCTTGATTCGCTTGACGCTGCTG | 2.47 |
| CCGATTAACATCAGGGGGGGTGATGATGTTAATCGGGTCTTGATTCGCTTGACGCTGCTG | 3.51 |
| CCGATTAACATCAAAGAAACCCCTGATGTTAATCGGGTCTTGATTCGCTTGACGCTGCTG | 6 |
| CCGATTAACATCAGGGGAAAGTATGATGTTAATCGGGTCTTGATTCGCTTGACGCTGCTG | 6.56 |
| CCGATTAACATCAATTCCCCCCCTGATGTTAATCGGGTCTTGATTCGCTTGACGCTGCTG | 8.18 |
| CCGATTAACATCAGGGAATCTACTGATGTTAATCGGGTCTTGATTCGCTTGACGCTGCTG | 2.43 |

###

target.entity: GST-Co-NF-kB (Capsaspora owczarzaki, UniProt F1ARL5 200-546)
Sequence: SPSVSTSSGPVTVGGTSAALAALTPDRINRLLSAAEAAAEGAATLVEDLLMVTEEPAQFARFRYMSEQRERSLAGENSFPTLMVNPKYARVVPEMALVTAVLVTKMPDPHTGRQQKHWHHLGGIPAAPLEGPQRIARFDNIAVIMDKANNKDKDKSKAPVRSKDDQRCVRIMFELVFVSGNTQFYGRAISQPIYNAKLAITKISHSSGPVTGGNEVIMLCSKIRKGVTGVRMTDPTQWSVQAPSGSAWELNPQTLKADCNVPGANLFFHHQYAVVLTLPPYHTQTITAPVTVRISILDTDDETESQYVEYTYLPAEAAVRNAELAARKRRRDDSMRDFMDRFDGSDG
measurement.description: protein-binding microarray (PBM); PBM: ~300 nM protein, 6 mM HEPES pH 7.8, 80 mM KCl, 0.5 mM EDTA, 0.5 mM EGTA, 6% glycerol, 35 ng/ul poly-dIdC, 1% milk, 1 h, room temperature; Ap Aiptasia and Nv Nematostella (sea anemones) / Co Capsaspora / Aq Amphimedon (sponge) / Dm Drosophila / Hu human; RHD is the Rel homology domain; high values mean tight binding
test.conditions: dsDNA, one strand shown
parameter.measured: binding signal (z-score)

| sequence | parameter.measured | measurement.units | measurement |
| --- | --- | --- | --- |
| CCGATTAACATCACTATTTTCCCTGATGTTAATCGGGTCTTGATTCGCTTGACGCTGCTG | binding signal | z-score | 5.27 |
| CCGATTAACATCACGTTTTTCCCTGATGTTAATCGGGTCTTGATTCGCTTGACGCTGCTG | binding signal | z-score | 5.98 |
| CCGATTAACATCAGGGGAAACGATGATGTTAATCGGGTCTTGATTCGCTTGACGCTGCTG | binding signal | z-score | 6.65 |
| CCGATTAACATCAGCCCCCCCCCTGATGTTAATCGGGTCTTGATTCGCTTGACGCTGCTG | binding signal | z-score | 5.44 |
| CCGATTAACATCAAAAACCCCCATGATGTTAATCGGGTCTTGATTCGCTTGACGCTGCTG | binding signal | z-score | 3.93 |
| CCGATTAACATCAGAATAACCCCTGATGTTAATCGGGTCTTGATTCGCTTGACGCTGCTG | binding signal | z-score | 1.66 |
| CCGATTAACATCAGGGAGTACACTGATGTTAATCGGGTCTTGATTCGCTTGACGCTGCTG | binding signal | z-score | 1.03 |
| CCGATTAACATCAAGAATCCCCCTGATGTTAATCGGGTCTTGATTCGCTTGACGCTGCTG | binding signal | z-score | 6.36 |
| CCGATTAACATCAGCATTCCCAATGATGTTAATCGGGTCTTGATTCGCTTGACGCTGCTG | binding signal | z-score | 1.08 |
| CCGATTAACATCACCCCATCCCCTGATGTTAATCGGGTCTTGATTCGCTTGACGCTGCTG | binding signal | z-score | 2.99 |
| CCGATTAACATCAGGGGGACTAATGATGTTAATCGGGTCTTGATTCGCTTGACGCTGCTG | binding signal | z-score | 4.79 |
| CCGATTAACATCACAAAATCCCCTGATGTTAATCGGGTCTTGATTCGCTTGACGCTGCTG | binding signal | z-score | 5.11 |
| CCGATTAACATCATTTCCCTTGCTGATGTTAATCGGGTCTTGATTCGCTTGACGCTGCTG | binding signal | z-score | 1.62 |
| CCGATTAACATCAGGGGGATCCATGATGTTAATCGGGTCTTGATTCGCTTGACGCTGCTG | binding signal | z-score | 4.25 |
| CCGATTAACATCAAACACCCCCTTGATGTTAATCGGGTCTTGATTCGCTTGACGCTGCTG | binding signal | z-score | 3.04 |
| CCGATTAACATCAGAGACTTCCCTGATGTTAATCGGGTCTTGATTCGCTTGACGCTGCTG | binding signal | z-score | 1.11 |
| CCGATTAACATCAGGGGGTTAAATGATGTTAATCGGGTCTTGATTCGCTTGACGCTGCTG | binding signal | z-score | 3.62 |
| CCGATTAACATCAAAAACCCCCTTGATGTTAATCGGGTCTTGATTCGCTTGACGCTGCTG | binding signal | z-score | 2.93 |
| CCGATTAACATCAATATATTCCCTGATGTTAATCGGGTCTTGATTCGCTTGACGCTGCTG | binding signal | z-score | 4.09 |
| CCGATTAACATCAAAAGTACCCCTGATGTTAATCGGGTCTTGATTCGCTTGACGCTGCTG | binding signal | z-score | 5.19 |
| CCGATTAACATCAGGGGAATGACTGATGTTAATCGGGTCTTGATTCGCTTGACGCTGCTG | binding signal | z-score | 3.9 |
| CCGATTAACATCAGGGGAAGATATGATGTTAATCGGGTCTTGATTCGCTTGACGCTGCTG | binding signal | z-score | 8.77 |
| CCGATTAACATCAGGGAAAAAAATGATGTTAATCGGGTCTTGATTCGCTTGACGCTGCTG | binding signal | z-score | 5.71 |
| CCGATTAACATCAGGATAACCCCTGATGTTAATCGGGTCTTGATTCGCTTGACGCTGCTG | binding signal | z-score | 1.72 |
| CCGATTAACATCAGGGGACGCACTGATGTTAATCGGGTCTTGATTCGCTTGACGCTGCTG | binding signal | z-score | 2.19 |
| CCGATTAACATCAGGGGAACCTATGATGTTAATCGGGTCTTGATTCGCTTGACGCTGCTG | binding signal | z-score | 5.66 |
| CCGATTAACATCAAAATTCCCGGTGATGTTAATCGGGTCTTGATTCGCTTGACGCTGCTG | binding signal | z-score | 5.57 |
| CCGATTAACATCAACGTATTCCCTGATGTTAATCGGGTCTTGATTCGCTTGACGCTGCTG | binding signal | z-score | 2.86 |
| CCGATTAACATCAGCCCGGGAAATGATGTTAATCGGGTCTTGATTCGCTTGACGCTGCTG | binding signal | z-score | 3.24 |
| CCGATTAACATCAAGACTCCCCCTGATGTTAATCGGGTCTTGATTCGCTTGACGCTGCTG | binding signal | z-score | 5.87 |
| CCGATTAACATCAGGGGGTTACATGATGTTAATCGGGTCTTGATTCGCTTGACGCTGCTG | binding signal | z-score | 3.27 |
| CCGATTAACATCAGGGGAGTTTATGATGTTAATCGGGTCTTGATTCGCTTGACGCTGCTG | binding signal | z-score | 4.75 |
| CCGATTAACATCAGGGGGGTTAATGATGTTAATCGGGTCTTGATTCGCTTGACGCTGCTG | binding signal | z-score | 3.92 |
| CCGATTAACATCAGGATTACCCATGATGTTAATCGGGTCTTGATTCGCTTGACGCTGCTG | binding signal | z-score | 1.67 |
| CCGATTAACATCAAGTAAATCCCTGATGTTAATCGGGTCTTGATTCGCTTGACGCTGCTG | binding signal | z-score | 1.22 |
| CCGATTAACATCAAACAGTCCCCTGATGTTAATCGGGTCTTGATTCGCTTGACGCTGCTG | binding signal | z-score | 2.54 |

The reported numbers originate from paper PMC5700166.
